Target: T1, human CD47ECD His tagged protein (human, UniProt Q08722 19-139, limits assumed)
T1 construct: extracellular domain; also called HuCD47ECD 8xHis; monovalent CD47ECD His tagged protein
T1 sequence (Q08722 19-139 limits assumed): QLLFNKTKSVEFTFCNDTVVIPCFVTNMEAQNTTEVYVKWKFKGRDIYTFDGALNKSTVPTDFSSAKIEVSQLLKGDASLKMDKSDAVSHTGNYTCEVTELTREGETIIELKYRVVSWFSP
Test: SPR (Biacore 3000); antibody captured on anti-human Fc chip, monovalent HuCD47ECD 8xHis injected; column Affinity (nM)
# Kd annotations
All answers are understood in nM, so give the number only.

The following binders have reported results that may help.
[
  {
    "Binder": "D8S1 mouse/human chimeric anti-human CD47 antibody (antibody, V domains shown, also called chimeric D8S1) VH: EVQLQQSVAELVRPGASVKLSCTVSGFNIKNTYIYWVKQRPEQGLEWIGRIDPANGNTKDAPKFQGKATMTADTSSNTAYLQLSSLTSEDTAIYYCARGYGSGFAYWGQGTLVTVSA VL: DIQMTQTTSSLSASLGDRVTISCRASQDISNHLNWYQQKPDGIVKLLIYYTSRLHSGVPSRFSGSGSGTDYSLTISNLEQEDIATYFCQQGSTLPFTFGSGTKLEIK",
    "Kd / nM": 3.28
  },
  {
    "Binder": "D125S3 mouse/human chimeric anti-human CD47 antibody (antibody, V domains shown, also called chimeric D125S3) VH: EVQLVESGGDLVKPGGSLNLSCAASGFTFSDYGMSWVRQTPDMRLEWVATISKYGTYTSYPDSVKGRFTISRSNAKNTLYLQMSSLKSADTALYYCARRFFGNYNYWYFDVWGAGTTVTVSS VL: DIVLTQSPASLAVSLGQRATFSCRASESVDEFGISYIHWYKKSPGQPPKLLIYRASTLESGISARFSGSGSGTDFTLTINPVETDDVATYYCQQSNQDPLTFGAGTKLELK",
    "Kd / nM": 3.62
  }
]

[Q] Entry D96S1 mouse/human chimeric anti-human CD47 antibody (antibody, V domains shown, also called chimeric D96S1) VH: EVQLQQSGAELVKPGASVKLSCTASGFNIKDTYIHWVKQRPEQGLEWIGRIDPANGNIKSDPKFQGKATVTADTSSNTAYLQLSSLTSEDTAVYYCARSYGSSFASWGQGTLVTVSP VL: DIQMTQTTSSLSASLGDRVTISCRASQDISNHLNWYQQKPDGAVKLLIYYTSRLHSGVPSRFSGSGSGTDYSLTISNLEQEDIATYFCQQGSTFPYTFGGGTKLEIK : reported Kd = ?
[A] 3.13
